biological target: TG2 (Homo sapiens (Human)); assay: Inhibitory activity against TG2 (isopeptidase assay), Tables 3 and 4; format: biochemical; conditions: Table 4; read-out: TG2 IC50
Sequence (P21980 whole entry): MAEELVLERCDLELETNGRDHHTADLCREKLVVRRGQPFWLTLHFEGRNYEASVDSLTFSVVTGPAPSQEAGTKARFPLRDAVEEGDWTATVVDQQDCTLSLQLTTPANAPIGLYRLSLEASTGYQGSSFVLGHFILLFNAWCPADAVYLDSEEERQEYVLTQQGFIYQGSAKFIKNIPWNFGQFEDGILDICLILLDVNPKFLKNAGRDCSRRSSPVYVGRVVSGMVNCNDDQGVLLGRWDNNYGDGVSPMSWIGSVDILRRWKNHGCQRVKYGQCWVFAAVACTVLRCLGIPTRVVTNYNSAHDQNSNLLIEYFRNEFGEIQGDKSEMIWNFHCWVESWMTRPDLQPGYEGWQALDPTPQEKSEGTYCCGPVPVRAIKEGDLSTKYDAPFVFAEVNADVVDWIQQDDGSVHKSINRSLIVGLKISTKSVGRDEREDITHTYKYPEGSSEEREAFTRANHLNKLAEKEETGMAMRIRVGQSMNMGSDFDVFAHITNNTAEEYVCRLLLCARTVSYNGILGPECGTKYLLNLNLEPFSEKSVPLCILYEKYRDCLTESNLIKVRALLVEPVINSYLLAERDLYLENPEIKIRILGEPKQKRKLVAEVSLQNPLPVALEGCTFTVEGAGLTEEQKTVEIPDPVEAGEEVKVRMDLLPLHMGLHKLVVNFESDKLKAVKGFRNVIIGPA
pIC50: −log10 of the molar value. *1 amine or outer side, *2 acyl side, *3 side chain or, on linkers, in order; H or OH if unused. Where a SMILES comes first, the peptide text is derived from it. [ ]: non-standard residue; d: D form. The star is where a group is joined. ξ: configuration not given here. Benzoyl(3-COOH,5-NO2) = O=C(O)c1cc(C(=O)*)cc([N+](=O)[O-])c1; Nle(5E-ene,6-CO2Et) = CCOC(=O)/C=C/CC[C@H](N)C(=O)O; X1 = COC(=O)/C=C/CC[C@H](N[*:1])C(=O)[*:2]; Pro(4-methylene) = C=C1CN[C@H](C(=O)O)C1; Morpholine(3S-CO) = O=C(O)[C@@H]1COCCN1; Pro(4-oxo) = O=C1CN[C@H](C(=O)O)C1; Ala(cPr) = N[C@@H](CC1CC1)C(=O)O; Ile(3ξ) = CCC(C)[C@H](N)C(=O)O; Chg = N[C@H](C(=O)O)C1CCCCC1; Tle = CC(C)(C)[C@H](N)C(=O)O; Nle = CCCC[C@H](N)C(=O)O; NHIsopentyl = CC(C)CCN*; Cbz = O=C(OCc1ccccc1)*
MEASURED_ATTRIBUTE: pIC50

Dear colleague, I am looking for the recorded pIC50 of the following compound: CCOC(=O)/C=C/CC[C@H](NC(=O)c1cc(C(=O)O)cc([N+](=O)[O-])c1)C(=O)N[C@H](C(=O)N1CC(=O)C[C@H]1C(=O)N[C@H](C(=O)NCCC(C)C)C1CCCCC1)C(C)(C)C [Compound 40] ({Benzoyl(3-COOH,5-NO2)}-[Nle(5E-ene,6-CO2Et)][Tle][Pro(4-oxo)][Chg]-NHIsopentyl) 6.07

Now consider CCCC[C@H](NC(=O)[C@H](CC/C=C/C(=O)OC)NC(=O)[C@@H]1CC(=O)CN1)C(=O)N[C@H](C(=O)N[C@@H](CC(C)C)C(=O)N1CCC[C@H]1C(=O)N[C@@H](Cc1c[nH]c2ccccc12)C(=O)O)C(C)CC (stereo partly drawn) [Ref. 15, reference compound] (H-[Pro(4-oxo)][X1][Nle][Ile(3ξ)]LPW-OH) . 6.93

Now consider CCOC(=O)/C=C/CC[C@H](NC(=O)OCc1ccccc1)C(=O)N[C@H](C(=O)N1CCC[C@H]1C(=O)N[C@@H](CC(C)C)C(=O)N[C@H](C(N)=O)C1CCCCC1)C(C)C [Ref. 08, reference compound] (Cbz-[Nle(5E-ene,6-CO2Et)]VPL[Chg]-NH2) . 7.44

Now consider C=C1C[C@@H](C(=O)N[C@@H](CC(C)C)C(=O)N2CCC[C@H]2C(=O)O)N(C(=O)[C@@H](NC(=O)[C@H](CC/C=C/C(=O)OC)NC(=O)c2cc(C(=O)O)cc([N+](=O)[O-])c2)C(C)(C)C)C1 [Compound 43] ({Benzoyl(3-COOH,5-NO2)}-[X1][Tle][Pro(4-methylene)]LP-OH) . 6.07

Now consider CCCC[C@H](NC(=O)[C@H](CC/C=C/C(=O)OC)NC(=O)[C@@H](CC(=O)O)NC(C)=O)C(=O)N[C@@H](CCCC)C(=O)N[C@@H](CC(C)C)C(=O)N1CCC[C@H]1C(=O)N[C@@H](Cc1c[nH]c2ccccc12)C(=O)O [Ref. 13, reference compound] (Ac-[dD][X1][Nle][Nle]LPW-OH) . 5.55

A = CCOC(=O)/C=C/CC[C@H](NC(=O)OCc1ccccc1)C(=O)N[C@@H](CCC(N)=O)C(=O)N1CCC[C@H]1C(=O)N[C@@H](CC(C)C)C(=O)N[C@H](C(N)=O)C1CCCCC1 [Ref. 09, reference compound] (Cbz-[Nle(5E-ene,6-CO2Et)]QPL[Chg]-NH2)
B = CCOC(=O)/C=C/CC[C@H](NC(=O)OCc1ccccc1)C(=O)N[C@H](C(=O)N1CCC[C@H]1C(=O)N[C@H](C(=O)NCCC(C)C)C1CCCCC1)C(C)C [Ref. 10, reference compound] (Cbz-[Nle(5E-ene,6-CO2Et)]VP[Chg]-NHIsopentyl)
C = COC(=O)/C=C/CC[C@H](NC(=O)[C@@H]1CC(=O)CN1)C(=O)N[C@@H](CC1CC1)C(=O)N1CCOC[C@H]1C(=O)N[C@@H](CC(C)C)C(=O)N1CCC[C@H]1C(=O)O [Compound 44] (H-[Pro(4-oxo)][X1][Ala(cPr)][Morpholine(3S-CO)]LP-OH)
Ascending by pIC50, please: list the compounds accordingly. The response must list the labels following the requested ordering. C, B, A
(C: 6.10, B: 6.75, A: 7.59)

---

target: TG2 (Homo sapiens (Human)); experiment: Inhibitory activity against TG2 (isopeptidase assay), Tables 3 and 4; assay type: biochemical; conditions: isopeptidase assay, Table 3; read-out: IC50 [nM] TG2
*1 amine or outer side, *2 acyl side, *3 side chain or, on linkers, in order; H or OH if unused. Where a SMILES comes first, the peptide text is derived from it. [ ]: non-standard residue; d: D form. The star is where a group is joined. Nle(5E-ene,6-CO2Et) = CCOC(=O)/C=C/CC[C@H](N)C(=O)O; Isonicotinoyl(3-COOH) = O=C(O)c1cnccc1C(=O)*; X1 = COC(=O)/C=C/CC[C@H](N[*:1])C(=O)[*:2]; Pro(4-oxo) = O=C1CN[C@H](C(=O)O)C1; Chg = N[C@H](C(=O)O)C1CCCCC1; Tle = CC(C)(C)[C@H](N)C(=O)O
MEASURED_ATTRIBUTE: IC50 (nM)
Numbers only here, please. The scale is nM.

Dear colleague, I am looking for the recorded IC50 of the following compound: CCOC(=O)/C=C/CC[C@H](NC(=O)c1ccncc1C(=O)O)C(=O)N[C@H](C(=O)N1CC(=O)C[C@H]1C(=O)N[C@H](C(=O)N[C@H](C(N)=O)C1CCCCC1)C1CCCCC1)C(C)(C)C [8a/b] ({Isonicotinoyl(3-COOH)}-[Nle(5E-ene,6-CO2Et)][Tle][Pro(4-oxo)][Chg][Chg]-NH2) 417

Consider the record given below.
Dear colleague, I am looking for the recorded IC50 of the following compound: COC(=O)/C=C/CC[C@H](NC(=O)c1ccncc1C(=O)O)C(=O)N[C@H](C(=O)N1CC(=O)C[C@H]1C(=O)N[C@H](C(=O)N[C@H](C(=O)O)C1CCCCC1)C1CCCCC1)C(C)(C)C [34a/b] ({Isonicotinoyl(3-COOH)}-[X1][Tle][Pro(4-oxo)][Chg][Chg]-OH) 356

---

Measured half-life of individual entries
assay: in vitro; details: plasma
*1 amine or outer side, *2 acyl side, *3 side chain or, on linkers, in order; H or OH if unused. Where a SMILES comes first, the peptide text is derived from it. [ ]: non-standard residue; d: D form. ξ: configuration not given here. X1 = COC(=O)/C=C/CC[C@H](N[*:1])C(=O)[*:2]; Pro(4-oxo) = O=C1CN[C@H](C(=O)O)C1; Ile(3ξ) = CCC(C)[C@H](N)C(=O)O; Thr(3ξ) = CC(O)[C@H](N)C(=O)O; Nle = CCCC[C@H](N)C(=O)O

Dear colleague, I am looking for the recorded half-life of the following molecule: CCCC[C@H](NC(=O)[C@H](CC/C=C/C(=O)OC)NC(=O)[C@@H]1CC(=O)CN1)C(=O)N[C@H](C(=O)N[C@@H](CC(C)C)C(=O)N1CCC[C@H]1C(=O)N[C@@H](Cc1c[nH]c2ccccc12)C(=O)N1CCC[C@H]1C(=O)O)C(C)CC (some centres unmarked) [Ref. 23, reference compound] (H-[Pro(4-oxo)][X1][Nle][Ile(3ξ)]LPWP-OH) < 15 min

***
Dear colleague, I am looking for the recorded half-life of the following molecule: COC(=O)/C=C/CC[C@H](NC(=O)[C@H](CC(N)=O)NC(C)=O)C(=O)N[C@@H](CCC(=O)O)C(=O)N[C@@H](CCC(N)=O)C(=O)N[C@H](C(=O)N[C@@H](CO)C(=O)N1CCC[C@H]1C(=O)N[C@@H](CC(C)C)C(=O)N[C@H](C(=O)N[C@@H](CC(C)C)C(=O)N[C@@H](CC(C)C)C(=O)O)C(C)O)C(C)C (some centres unmarked) [Ref. 18, reference compound] (Ac-N[X1]EQVSPL[Thr(3ξ)]LL-OH) < 15 min

---

Measured recovery at 2 h of individual entries
assay: Stability of compounds in plasma (HPLC)
Where a SMILES comes first, the peptide text is derived from it. [ ]: non-standard residue; d: D form. The star is where a group is joined. Benzoyl(2-COOH,5-NO2) = O=C(O)c1ccc([N+](=O)[O-])cc1C(=O)*; Nle(5E-ene,6-CO2Et) = CCOC(=O)/C=C/CC[C@H](N)C(=O)O; Pro(4-methylene) = C=C1CN[C@H](C(=O)O)C1; X2 = O=C(O)c1cc([N+](=O)[O-])ccc1C(=O)*; Chg = N[C@H](C(=O)O)C1CCCCC1; Tle = CC(C)(C)[C@H](N)C(=O)O

Dear colleague, I am looking for the recorded recovery at 2 h of the following molecule: C=C1C[C@@H](C(=O)N[C@@H](CC(C)C)C(=O)N[C@H](C(N)=O)C2CCCCC2)N(C(=O)[C@@H](NC(=O)[C@H](CC/C=C/C(=O)OCC)NC(=O)c2cc([N+](=O)[O-])ccc2C(=O)O)C(C)(C)C)C1 [Compound 42b] ({Benzoyl(2-COOH,5-NO2)}-[Nle(5E-ene,6-CO2Et)][Tle][Pro(4-methylene)]L[Chg]-NH2) > 75%

Consider the record given below.
Dear colleague, I am looking for the recorded recovery at 2 h of the following molecule: C=C1C[C@@H](C(=O)N[C@@H](CC(C)C)C(=O)N[C@H](C(N)=O)C2CCCCC2)N(C(=O)[C@@H](NC(=O)[C@H](CC/C=C/C(=O)OCC)NC(=O)c2ccc([N+](=O)[O-])cc2C(=O)O)C(C)(C)C)C1 [Compound 42a] (X2-[Nle(5E-ene,6-CO2Et)][Tle][Pro(4-methylene)]L[Chg]-NH2) > 75%

Origin of values: patent US11472838B2
